target: Mu-type opioid receptor (Homo sapiens); experiment: Agonist activity at human MOP expressed in HEK293 cells coexpressing GloSensor-20F assessed as inhibition of forskolin-induced cAMP accumulation; format: functional, cell-based
Sequence (P35372 whole entry): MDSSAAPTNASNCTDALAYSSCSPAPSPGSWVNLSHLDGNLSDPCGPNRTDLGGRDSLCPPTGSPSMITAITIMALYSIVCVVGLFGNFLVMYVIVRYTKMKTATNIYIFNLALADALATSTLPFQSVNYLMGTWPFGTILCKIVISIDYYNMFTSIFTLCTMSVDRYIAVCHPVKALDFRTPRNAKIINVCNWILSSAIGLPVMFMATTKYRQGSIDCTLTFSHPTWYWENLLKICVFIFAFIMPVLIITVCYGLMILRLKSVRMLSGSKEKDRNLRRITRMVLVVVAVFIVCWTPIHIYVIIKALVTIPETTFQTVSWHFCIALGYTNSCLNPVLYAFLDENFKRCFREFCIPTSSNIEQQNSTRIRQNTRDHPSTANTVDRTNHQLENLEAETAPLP
pEC50: −log10 of the molar value. Numbered stars: 1 amine (or outer) side, 2 acyl side, 3 side chain; on linkers, the order of the positions; unused ones are H or OH. Square brackets hold non-standard residues; d marks the D form. Peptide text beside a SMILES is read from it. Nva(5-(4-Bn-piperidin-1-yl)) = N[C@@H](CCCN1CCC(Cc2ccccc2)CC1)C(=O)O; X1 = O=C1[C@@H](N[*:1])Cc2ccccc2CN1CCC(=O)[*:2]; Dmt = Cc1cc(O)cc(C)c1C[C@H](N)C(=O)O; dOrn = NCCC[C@@H](N)C(=O)O
Output MET for pEC50 not less than 8; output NOT MET otherwise.

{"columns": ["compound", "tgt", "qualitative label"],
 "data": [
  ["Cc1cc(O)cc(C)c1C[C@H](N)C(=O)N[C@H](CCCNC(=N)N)C(=O)N[C@H]1Cc2c(ccc3ccccc23)CN(CCC(=O)N[C@@H](CCCN2CCC(Cc3ccccc3)CC2)C(=O)N[C@@H](Cc2ccccc2)C(N)=O)C1=O", "Mu-type opioid receptor (Homo sapiens)", "MET"],
  ["Cc1cc(O)cc(C)c1C[C@H](N)C(=O)N[C@H](CCCN)C(=O)N[C@H]1Cc2ccccc2CN(CCC(=O)N[C@@H](CCCN2CCC(Cc3ccccc3)CC2)C(=O)N[C@@H](Cc2ccccc2)C(N)=O)C1=O (H-[Dmt][dOrn][X1][Nva(5-(4-Bn-piperidin-1-yl))]F-NH2)", "Mu-type opioid receptor (Homo sapiens)", "NOT MET"],
  ["Cc1cc(O)cc(C)c1C[C@H](N)C(=O)N[C@H](CCCCN)C(=O)N[C@H]1Cc2ccccc2CN(CCC(=O)N[C@@H](CCCN2CCC(Cc3ccccc3)CC2)C(=O)N[C@@H](Cc2ccccc2)C(N)=O)C1=O (H-[Dmt][dK][X1][Nva(5-(4-Bn-piperidin-1-yl))]F-NH2)", "Mu-type opioid receptor (Homo sapiens)", "NOT MET"]
]}
